# System: Rosa hybrida (pot rose cultivar) explants
# experiment summary: In vitro and post vitro shoot multiplication and rooting of rose
# Type: in vivo
# reported conditions: Ex vitro, four weeks of acclimatising
Kindly state Total root length per plant for each of the entries shown.
Answers are plain numbers, in cm.

Some molecules with known Total root length per plant results, for comparison:
molecule	assay target	Total root length per plant [cm]
Oc1cccc(CNc2ncnc3nc[nH]c23)c1 [meta-topolin, 6-(3-hydroxybenzylamino)purine]	Rosa hybrida (pot rose cultivar) explants	3.8
COc1ccccc1CNc1ncnc2nc[nH]c12	Rosa hybrida (pot rose cultivar) explants	8.5
c1ccc(CNc2ncnc3nc[nH]c23)cc1 [BAP, 6-benzylaminopurine, reference compound]	Rosa hybrida (pot rose cultivar) explants	1.1

Now for a further molecule.
Prompt: Which measured Total root length per plant value corresponds to COc1cccc(CNc2ncnc3nc[nH]c23)c1 ?
Completion: 4.1

====

Assign pIC50 to each entry below.
# System: HOS
# experiment summary: Calcein AM cytotoxicity, HOS
# Format: cell-based
# reported conditions: Homo sapiens, HOS, 72 h
pIC50: −log10 of the molar value.

Some solved cases for reference:
molecule	assay target	pIC50
Oc1cccc(CNc2ncnc3nc[nH]c23)c1 [meta-topolin, 6-(3-hydroxybenzylamino)purine]	HOS	< 3.78
COc1ccc(CNc2ncnc3nc[nH]c23)cc1	HOS	< 3.78
Fc1ccc(CNc2ncnc3nc[nH]c23)cc1	HOS	< 3.78
Fc1ccccc1CNc1ncnc2nc[nH]c12	HOS	< 3.78
c1ccc(CNc2ncnc3nc[nH]c23)cc1 [BAP, 6-benzylaminopurine, reference compound]	HOS	< 3.78
c1coc(CNc2ncnc3[nH]cnc23)c1 [Kinetin, reference compound]	HOS	< 3.78
Clc1ccc(CNc2ncnc3nc[nH]c23)cc1	HOS	< 3.78
COc1cccc(CNc2ncnc3nc[nH]c23)c1	HOS	< 3.78

Could I get pIC50 for every one of these entries?
1. Ic1cccc(CNc2ncnc3nc[nH]c23)c1
2. Clc1cccc(CNc2ncnc3nc[nH]c23)c1

Completion:
1: < 3.78; 2: < 3.78

====

I'd be grateful if you could share measured Activity (%) [10^−4 mol · l^−1 BAP = 100%] for these entries.
# System: tobacco callus Nicotiana tabacum L. cv. Wisconsin 38
# experiment summary: Cytokinin-dependent tobacco callus growth
# Format: cell-based
# reported conditions: fresh callus weight at the concentration with highest activity
# Description: Cytokinin-dependent tobacco callus Nicotiana tabacum L. cv. […] Biological activity was determined from the increase in fresh callus weight after four weeks of cultivation. […] Relative activity of the compound at this concentration was calculated (Tab. 6). […]

compound	assay target	observed value
Fc1cc(F)cc(CNc2ncnc3nc[nH]c23)c1	tobacco callus Nicotiana tabacum L. cv. Wisconsin 38	97 (±3) %

Quick request: Activity (%) [10^−4 mol · l^−1 BAP = 100%] for each listed item, please.
1. Clc1ccc(CNc2ncnc3nc[nH]c23)c(Cl)c1
2. COc1cc(CNc2ncnc3nc[nH]c23)cc(OC)c1OC
3. Fc1ccc(CNc2ncnc3nc[nH]c23)cc1Cl
4. COc1ccccc1CNc1ncnc2nc[nH]c12
5. COc1cccc(CNc2ncnc3nc[nH]c23)c1OC

Completion:
1: 11 (±3) %; 2: 19 (±3) %; 3: 90 (±1) %; 4: 79 (±5) %; 5: 8.5 (±2) %

Required: Activity (%) [10^−4 mol · l^−1 BAP = 100%], one value per compound below.
1. Clc1ccccc1CNc1ncnc2nc[nH]c12
2. Oc1ccc(CNc2ncnc3nc[nH]c23)cc1O [6-(3,4-dihydroxybenzylamino)purine]

Completion:
93 (±4) %
4 (±1) %
